# system_tested: Tyrosine-protein phosphatase non-receptor type 1 (Homo sapiens, UniProt P18031)
# Sequence (P18031 whole entry): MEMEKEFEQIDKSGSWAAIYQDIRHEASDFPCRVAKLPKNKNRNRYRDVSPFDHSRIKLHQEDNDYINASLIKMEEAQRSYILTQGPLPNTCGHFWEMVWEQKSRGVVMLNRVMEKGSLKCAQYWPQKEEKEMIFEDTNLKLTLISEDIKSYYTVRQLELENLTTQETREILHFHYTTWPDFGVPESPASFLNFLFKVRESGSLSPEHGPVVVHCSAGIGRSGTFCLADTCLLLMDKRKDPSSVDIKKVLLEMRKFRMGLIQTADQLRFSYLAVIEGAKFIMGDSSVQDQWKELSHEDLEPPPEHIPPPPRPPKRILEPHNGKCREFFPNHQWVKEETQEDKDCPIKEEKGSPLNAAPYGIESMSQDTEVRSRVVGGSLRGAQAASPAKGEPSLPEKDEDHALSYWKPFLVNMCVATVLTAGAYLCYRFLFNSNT
# measurement_protocol: Inhibitory concentration against Protein-tyrosine phosphatase 1B (PTP1B)
test_readout: IC50 (mM)
Report as a plain number; the unit mM is understood.

Return reported IC50; argument: "C=CCOC(=O)/C=C\c1cccc(C(F)(F)P(=O)(O)O)c1"
12.2

---

# system_tested: UniProt:P18031
# measurement_protocol: Compound was evaluated for its percent Inhibition of protein-tyrosine phosphatase 1B (PTP1B) at the concentration of 50 uM
test_readout: inhibition
Don't forget the unit after the value.

So what's the measured inhibition for this one? "O=P(O)(O)C(F)(F)c1cccc(/C=C\C=C\c2ccccc2)c1"
70%

Could you share which inhibition value was measured for "N#C/C=C\c1cccc(C(F)(F)P(=O)(O)O)c1" ?
45%

inhibition lookup needed for "O=P(O)(O)C(F)(F)c1cccc(/C=C\c2cccc3ccccc23)c1" , thanks.
60%

Form field: reported inhibition of "COC(=O)/C=C\c1cccc(C(F)(F)P(=O)(O)O)c1"
23%

Reported inhibition, compound "O=C(/C=C\c1cccc(C(F)(F)P(=O)(O)O)c1)OCc1ccccc1" : ____
71%

GET /values?readout=inhibition&item= "CCOC(=O)/C=C\c1cccc(C(F)(F)P(=O)(O)O)c1"
53%

Look at this compound and give its reported inhibition. "C=CCOC(=O)/C=C\c1cccc(C(F)(F)P(=O)(O)O)c1"
84%
